molecular target: T1, human CD40 on cells (CD40-transfected HEK293 cells, Ramos cells, human B cells, human platelets) (human, UniProt P25942 21-277); experiment: cell binding, flow cytometry (cell type not given)
T1 construct: whole, on cells; also called cellular CD40
T1 sequence (P25942 21-277): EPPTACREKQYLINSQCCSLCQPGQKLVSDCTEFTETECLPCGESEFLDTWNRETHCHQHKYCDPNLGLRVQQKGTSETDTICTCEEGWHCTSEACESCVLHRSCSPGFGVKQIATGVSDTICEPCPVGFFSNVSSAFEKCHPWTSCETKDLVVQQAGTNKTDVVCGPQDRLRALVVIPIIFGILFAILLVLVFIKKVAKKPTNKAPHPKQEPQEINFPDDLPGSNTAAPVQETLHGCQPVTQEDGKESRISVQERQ
PARAMETER: pEC50
Please report pEC50 as the negative decimal logarithm of the molar concentration, giving only the number.

BINDER	OBSERVED
Antibody A (IgG1KO) (antibody, V domains shown, also called 20E2-12) VH: EVQLVESGGGLVKPGGSLRLSCAASGFTFSDYGMHWVRQAPGKGLEWVAYISSGNRIIYYADTVKGRFTISRDNAKNSLYLQMNSLRAEDTALYYCARQDGYRYAMDYWAQGTLVTVSS VL: DIVMTQSPDSLAVSLGERATMSCKSSQSLLNSGNQKNYLTWHQQKPGQPPKLLIYWTSTRESGVPDRFSGSGSGTDFTLTISSLQAEDVAVYYCQNDYTYPLTFGGGTKVEIKR	8.92
Antibody C (IgG1KO) (antibody, V domains shown, also called 2H11-159-94) VH: QVQLVQSGAEVKKPGASVKVSCTASGFNIKDYYVHWVKQAPGQGLEWMGRIDPEDGDSKYAPKFQGKATMTADTSTSTVYMELSSLRSEDTAVYYCTTSYYVGTYGYWGQGTLVTVSS VL: DIQMTQSPSSLSASVGDRVTITCSASSSVSYMLWFQQKPGKAPKLLIYSTSNLASGVPSRFSGSGSGTDFTLTISSLQPEDFATYYCQQRTFYPYTFGGGTKVEIKR	8.77
4D11 (Kirin/Astellas) anti-CD40 antibody (antibody, V domains shown) VH: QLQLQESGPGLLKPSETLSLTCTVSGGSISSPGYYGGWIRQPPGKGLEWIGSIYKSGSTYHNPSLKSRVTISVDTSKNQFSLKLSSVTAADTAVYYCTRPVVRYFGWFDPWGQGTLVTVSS VL: AIQLTQSPSSLSASVGDRVTITCRASQGISSALAWYQQKPGKAPKLLIYDASNLESGVPSRFSGSGSGTDFTLTISSLQPEDFATYYCQQFNSYPTFGQGTKVEIK	9.05

Kindly review the next binder as well.
Reported pEC50 ( Antibody B (IgG1KO) (antibody, V domains shown) VH: EVQLVESGGGLVKPGGSLRLSCAASGFTFSDYGMHWVRQAPGKGLEWVAYISSGNRIIYYADTVKGRFTISRDNAKNSLYLQMNSLRAEDTAVYYCARQDGYRYAMDYWGQGTLVTVSS VL: DIVMTQSPDSLAVSLGEKVTINCKSSQSLLNSGNQKNYLTWHQQKPGQPPKLLIYWTSTRESGVPDRFSGSGSGTDFTLTISSLQAEDVAVYYCQNDYTYPLTFGGGTKVEIKR ) = 8.82
